# assay.info: qHTS Validation assay for Inhibitors of Plasmodium falciparum Dd2 growth in vitro; note: nearly all actives have a fitted effect of over 70% in size
# details: P. falciparum Dd2 in RBCs, SYBR Green growth, 72 h; series mostly up to 28.7 µM
About 1,600 (39%) of roughly 4,100 compounds were called active. About 25% were inconclusive and are not listed. Calls come from the whole dose curve; as a rule, active = well fitted inhibition curve with a large enough effect; inconclusive = small, poorly fitted or top-dose-only effect; inactive = no such curve, though single readings can be large or run the other way. Some of the results follow.
Your reply should match one of these outcome classes. 1.0 (active), 0.0 (inactive)

Worked examples, 5 molecules total:
query.smiles: O=C(/C=C/c1ccco1)NC(=S)Nc1ccccc1N1CCCC1
assigned.class: 1.0
--
query.smiles: Cc1cc(O)c(-c2ccnc3cc(-c4ccccc4)nn23)cc1Cl
assigned.class: 1.0
--
query.smiles: O=c1cc(Nc2ccc3c(c2)OCCO3)[nH]c(=O)n1C1CCCCC1
assigned.class: 0.0
--
query.smiles: Cc1cn(-c2cc(C(=O)Nc3ccc(C)c(NC(=O)C(=O)c4c[nH]c5ccccc45)c3)cc(C(F)(F)F)c2)cn1
assigned.class: 1.0
--
query.smiles: Cc1ccccc1-c1nccn2c(C3CN(Cc4ccccc4O)C3)ncc12
assigned.class: 1.0

Would you kindly look at the next entry?
Dear colleague, could you share the recorded outcome for O=C(c1ccccc1)N1CCC(N(Cc2cccnc2)C2CCOCC2)CC1 when you have a moment?
0.0
